FYI, the data here is from PubChem BioAssay (NCI).

Quick reference: GI50 of the listed items.
system: A549 NSCLC; assay: NCI tumour cell line growth inhibition, 48 h

Some entries whose results are on file:
- molecular.string: "N=C(N)c1ccc(NCCOCCNc2ccc(C(=N)N)cc2)cc1"
  recorded.endpoint: "GI50"
  experimental.value: "14.4 µM"
- molecular.string: "Cc1cc(N2CCCC2)nc(NCc2cc(Nc3ccnc4cc(Cl)ccc34)ccc2F)n1"
  recorded.endpoint: "GI50"
  experimental.value: "1.71 µM"

**Query** Test system A549 NSCLC; read-out GI50; what value for `Cc1[nH]nc2c1N=C(c1ccccc1F)c1cc(C(N)=O)ccc1N2` ?
**Result** 7.56 µM

**Query** Test system A549 NSCLC; read-out GI50; what value for `C[n+]1c(-c2ccc(/C=N/NC(=O)c3ccc(C(=O)N/N=C/c4ccc(-c5cn6ccccc6[n+]5C)cc4)cc3)cc2)cn2ccccc21` ?
**Result** 176 µM

###

test system: SNB-75 CNS; assay: NCI tumour cell line growth inhibition, 48 h
Residues, ends and D or L forms follow the SMILES beside them. *: point of attachment. Boc = CC(C)(C)OC(=O)*; OBn = c1ccc(CO*)cc1
Quick reference: TGI of the listed items.

Some entries whose results are on file:
- compound: "Oc1ccccc1C1=NOC(c2ccc(C(F)(F)F)cc2)C1 (centres undefined)"
  experimental.value: "> 50 µM"
- compound: "CC(C)CC(NC(=O)OC(C)(C)C)C(=O)N1CCCC1C(=O)OCc1ccccc1 (stereo not drawn) (Boc-Leu-Pro-OBn; configuration not given here)"
  experimental.value: "> 100 µM"
- compound: "CC1Cc2cc(O)c(O)cc2-c2cc(O)c(O)cc2CC1C (centres undefined)"
  experimental.value: "> 100 µM"
- compound: "COc1cc2ncnc(Nc3ccc4c(cnn4Cc4ccccc4)c3)c2cc1OC"
  experimental.value: "> 25 µM"
- compound: "COc1ccccc1N=N/C(=N\\NC(=O)c1ccc(C)cc1)c1ccc(N(CCC#N)CCC#N)cc1C"
  experimental.value: "> 100 µM"

**Query** Test system SNB-75 CNS; read-out TGI; what value for `O=[N+]([O-])/C(C(Cl)=C(Cl)Cl)=C(\Nc1ccccc1)n1nnc2ccccc21` ?
**Result** > 100 µM

**Query** Test system SNB-75 CNS; read-out TGI; what value for CSc1nc(NC2OC(COC(C)=O)C(OC(C)=O)C(OC(C)=O)C2OC(C)=O)c(-c2csc(N)n2)c(=O)n1C (centres undefined) ?
**Result** 47.8 µM

**Query** Test system SNB-75 CNS; read-out TGI; what value for `Oc1cccc(/C=N/Nc2nnc(N/N=C/c3cccc(O)c3)c3ccccc23)c1` ?
**Result** 50.5 µM

**Query** Test system SNB-75 CNS; read-out TGI; what value for `CNS(=O)(=O)NN(C)S(=O)(=O)c1ccc2ccccc2c1` ?
**Result** > 100 µM

###

test system: SF-268 CNS; assay: NCI tumour cell line growth inhibition, 48 h
recorded.endpoint: TGI

- molecule: "N=C(N)c1ccc(NCCOCCNc2ccc(C(=N)N)cc2)cc1"
  test.target: "SF-268 CNS"
  recorded.endpoint: "TGI"
  experimental.value: "> 100 µM"

**Query** Test system SF-268 CNS; read-out TGI; what value for `Nc1c(N2CCOCC2)c(=O)nc2[nH]/c(=C\c3ccccc3)c(=O)n12` ?
**Result** > 100 µM

**Query** Test system SF-268 CNS; read-out TGI; what value for `CCCCC(=O)N/N=C/c1c(O)ccc2ccccc12` ?
**Result** > 75 µM

**Query** Test system SF-268 CNS; read-out TGI; what value for CC(=O)C(CN(C)C)C(c1ccccc1)c1c(O)c2ccccc2oc1=O (stereo not drawn) ?
**Result** > 100 µM

**Query** Test system SF-268 CNS; read-out TGI; what value for `Cc1cc(C(=O)O)c(C)n1-c1cccc(C(=O)O)c1` ?
**Result** > 100 µM

**Query** Test system SF-268 CNS; read-out TGI; what value for `O=C1C(=O)c2ccccc2C(O)=C1CCCc1ccc(C2CCCCCC2)cc1` ?
**Result** 26.7 µM

**Query** Test system SF-268 CNS; read-out TGI; what value for `CCOC(=N)CC(=O)Nc1cccc(Cl)c1` ?
**Result** > 100 µM

**Query** Test system SF-268 CNS; read-out TGI; what value for `COc1ccc(/C=C/C(=O)CC(=O)/C=C/c2ccc(OC)cc2)cc1` ?
**Result** > 100 µM

**Query** Test system SF-268 CNS; read-out TGI; what value for Cc1nc2ccc(NC3OC(CO)C(O)C(O)C3O)cc2c(=O)n1-c1ccccc1 (stereo not drawn) ?
**Result** > 100 µM

**Query** Test system SF-268 CNS; read-out TGI; what value for `O=S1(=O)CS(=O)(=O)OCCO1` ?
**Result** 249 µM
